Tested on: Fer (mouse)
Test: phosphorylation enrichment, bacterial display (enrichment ratio); higher = better substrate or ligand; peptides without Tyr show the background;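 note: 11-residue human phosphosite peptides and single-mutation variants displayed on the E. coli surface, counted by deep sequencing, each peptide's frequency after selection divided by its frequency in the unselected input library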;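 note: frequency after pTyr selection over input frequency; kinase dosed for 20-30% of maximal phosphorylation in three min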
Provide the reported phosphorylation enrichment of each item.
Numbers only.

Known phosphorylation enrichment results, listed for orientation:
| primary_sequence | phosphorylation enrichment |
| --- | --- |
| LLNPRYNLPLD [TOM1L1_Y109] | 0.62 |
| LTSKPYAFTAW [NDUFS1_Y236_R241W] | 0.448 |
| AFSLKYEQQTQ [SYTL4_Y366] | 0.719 |
| KVKVEYDMTVP [AHNAK_Y964_G962V] | 0.51 |
| PFFTSYPPSPD [GDAP2_Y491_YF] | 0.507 |
| ISDNACQFMLT [MYH7_Y162_Y162C_YF] | 0.51 |
| QKTGDYYDLYG [PTPN11_Y62_N58K] | 0.586 |
| LDPIQYSKHPP [SQSTM1_Y433_T430P] | 0.634 |

Each of the following entries comes with a recorded value; kindly state phosphorylation enrichment for each.
1. FGGLRCGFGVL [KRTAP20-2_Y13_Y13C_YF]
2. PQGVGYPPQPQ [EP300_Y2219_Q2223P]
3. AESPEYVHMFT [FAM111A_Y511_YF]
4. LITTLYIDFLG [KCNQ1_Y267_G269D]
5. KKLHEYNTQFQ [PIK3R1_Y452]
6. HLQQSNLPRGT [TEX45_Y396_Y396N]
7. SLIEHYEPSET [PLCD1_Y258_R257H]

result:
1. 0.46
2. 0.815
3. 0.542
4. 0.749
5. 0.389
6. 0.279
7. 0.525

---

Target: EPHB2 (UniProt P29323)
Sequence (P29323 whole entry, looked up): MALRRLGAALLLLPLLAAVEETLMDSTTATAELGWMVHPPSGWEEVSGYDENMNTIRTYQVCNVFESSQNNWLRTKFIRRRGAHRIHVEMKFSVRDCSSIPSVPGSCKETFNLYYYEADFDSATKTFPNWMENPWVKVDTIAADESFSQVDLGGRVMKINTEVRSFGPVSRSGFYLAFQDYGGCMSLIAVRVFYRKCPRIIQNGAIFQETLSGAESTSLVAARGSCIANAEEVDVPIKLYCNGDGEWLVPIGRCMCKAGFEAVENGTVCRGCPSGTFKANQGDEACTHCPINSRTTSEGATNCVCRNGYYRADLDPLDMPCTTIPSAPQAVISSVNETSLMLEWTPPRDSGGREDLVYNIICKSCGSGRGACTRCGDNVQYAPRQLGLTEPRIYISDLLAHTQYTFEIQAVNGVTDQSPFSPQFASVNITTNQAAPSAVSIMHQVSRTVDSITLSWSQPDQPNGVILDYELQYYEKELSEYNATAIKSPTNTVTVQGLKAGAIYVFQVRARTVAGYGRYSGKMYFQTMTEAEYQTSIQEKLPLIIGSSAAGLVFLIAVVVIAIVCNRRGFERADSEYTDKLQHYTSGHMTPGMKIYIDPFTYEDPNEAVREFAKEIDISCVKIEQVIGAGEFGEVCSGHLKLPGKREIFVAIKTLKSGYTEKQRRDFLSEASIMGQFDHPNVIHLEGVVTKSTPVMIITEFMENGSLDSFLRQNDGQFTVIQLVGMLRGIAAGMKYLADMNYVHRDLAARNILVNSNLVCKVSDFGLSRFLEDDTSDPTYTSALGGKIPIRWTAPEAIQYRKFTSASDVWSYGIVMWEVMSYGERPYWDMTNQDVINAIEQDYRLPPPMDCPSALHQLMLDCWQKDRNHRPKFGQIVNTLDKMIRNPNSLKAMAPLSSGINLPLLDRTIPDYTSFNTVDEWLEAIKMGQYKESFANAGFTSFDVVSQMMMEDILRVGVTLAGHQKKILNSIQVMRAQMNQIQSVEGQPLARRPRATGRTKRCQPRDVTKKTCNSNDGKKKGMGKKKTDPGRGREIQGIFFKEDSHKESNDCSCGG
Experiment: phosphorylation enrichment, bacterial display (enrichment ratio); higher = better substrate or ligand; peptides without Tyr show the background
Please respond with reported phosphorylation enrichment for every item in the list.
One number for each entry.

// worked examples, phosphorylation enrichment included
| primary_sequence | phosphorylation enrichment |
| --- | --- |
| AVAFLYYKSIG [ADGRL4_Y301_V300L] | 0.54 |
| GEVLVYVEDPA [FLNA_Y319] | 0.728 |
| FGCGMYSHLQG [LGR4_Y848_D844G_YF] | 0.744 |
| DLQDEYDFKRK [STAT1_Y170_C174R] | 0.54 |
| TEQDPYNSIVR [MMUT_Y364_N366S] | 0.616 |

Report phosphorylation enrichment for every entry below.
1. LDPIQYSKHPP [SQSTM1_Y433_T430P]
2. FDSPFYRDSLP [TSC1_Y508]
3. EVESPYEVRDF [GIGYF2_Y1168_H1171R_YF]
4. SKEPFYVHCIK [MYO1D_Y586_R588H_YF]

result:
1: 0.588; 2: 0.479; 3: 0.951; 4: 0.577

Here are 3 sequences. What values of phosphorylation enrichment were reported for them?
1. PLGVPYLDKPP [JMJD7_Y31_A28G]
2. VICRRYLVMQR [IL3RA_Y328]
3. FFHCTYKQRMI [CLEC12A_Y242_K244Q_YF]

result:
1: 0.794; 2: 0.69; 3: 0.608

Value sought for every listed sequence: phosphorylation enrichment.
1. NHFKIYNLFAE [PTEN_Y68_C71Y_YF]
2. KFLENYFDLKK [MMP3_Y41_YF]
3. LGGAMYFLEAE [PKHD1_Y452_YF]
4. EDKFMYSEFPQ [PTEN_Y240_F241S]
5. TLLERYGMTEI [ACSF3_Y355]
6. MKKMHYVDPDR [ST3GAL5_Y99_H104R]
7. ESMQSYDLDYP [UNC13B_Y243_D238E]
8. RSRSPYSPVFR [CDK13_Y399_L403F]

result:
1. 1.14
2. 0.751
3. 0.984
4. 1.05
5. 0.516
6. 0.388
7. 0.534
8. 0.452

I have 6 sequences here; please give me phosphorylation enrichment for each one.
1. ARLEFCENEKK [IRS1_Y47_Y47C_YF]
2. LGPSDYFGEIV [PRKAR1A_Y323_A328V]
3. RIFDFYSARKA [STOX1_Y858_YF]
4. QLATEYVFSDF [PANX1_Y10]
5. FEPDAYFDLDQ [ELP5_Y302_D303Y_YF]
6. KNNDGYTDYAE [MCFD2_Y135_I136T]

result:
1. 0.575
2. 0.722
3. 0.847
4. 0.62
5. 0.656
6. 0.57

// for each sequence below, give its phosphorylation enrichment
1. FKDYFYCWNTS [AICDA_Y146_F151S]
2. CNTIHYNFMCN [TP53_Y234_T230N_YF]

result:
2.58
0.4
